Biological target: T1, Bicoid DBD-GST (Bcd) (UniProt P09081 83-170)
T1 sequence: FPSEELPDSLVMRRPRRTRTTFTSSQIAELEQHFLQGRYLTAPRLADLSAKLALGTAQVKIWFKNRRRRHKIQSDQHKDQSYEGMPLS
Assay: competitive fluorescence anisotropy (HiP-FA); mean of replicates 6.544, 6.784; HiP-FA: 33 mM phosphate pH 7.0, 90 mM NaCl, 0.01% Tween 20, 0.1 mM DTT, 0.5% agarose; conventional titration and EMSA: 20 mM Tris-acetate pH 7.0, 50 nM (sic) NaCl, 0.01% Tween-20, 0.1 mM DTT
Conditions: protein: recombinant; tags: N-terminal GST; blunt
pKd: −log10 of the molar value.
measure: pKd

binder | reported
Bcd competitor 5 (G2T) (dsDNA) DNA 1: TCGACTGTAATCCCTA DNA 2: TAGGGATTACAGTCGA | 8.18
